Hello, the source for this data is PubChem BioAssay, in case you need it.

# Method summary: osmotic lysis modulators in infected erythrocytes, primary screen, PSAC antagonist project, cell-based, P. falciparum Indochina, OD700, 3 h (AID 1156)
# Conditions used: higher = more signal, called active from +8 up or from −8 down
Activity calls are given as the source filed them.
Reported z-score by item:
Quantity: z-score

Compound	Quantity	Observed value
C=C(/C(=C/C[C@H](OC(=O)c1ccncc1)c1ccccc1OCCO)c1cnc2ccccc2c1)C(C)C	z-score	1.41 (inactive)
CC(C)OC(=O)CC(=O)CC(O)c1ccc([N+](=O)[O-])cc1 (centres undefined)	z-score	0.0451 (inactive)
CCOC(=O)C1=C[C@@H](c2ccccc2)N(S(=O)(=O)c2ccc(C)cc2)[C@H]1c1ccccc1	z-score	-0.657 (inactive)
C=CCNC(=O)[C@H]1[C@@H]2C(=O)O[C@@H](c3ccccc3)[C@@H](c3ccccc3)N2[C@@H](c2ccc(O)cc2)[C@]12C(=O)N(C(=O)OCCOC)c1ccc(C#CCC(C(=O)OC)C(=O)OC)cc12	z-score	-4.17 (inactive)

* * *

Reported z-score by item:
# Method summary: P. aeruginosa biofilm formation inhibitors, primary screen, PAO1 strain, BacTiter-Glo luminescence, LB-PBS (AID 1144)
# Conditions used: 12 h, higher = more signal

Compound	z-score
O=C1O[C@H](c2ccccc2)[C@H](c2ccccc2)N2[C@H]1[C@@H](C(=O)Nc1nc3ccccc3s1)[C@]1(C(=O)Nc3ccc(C#CC4=CCCCC4)cc31)[C@H]2c1ccc(O)cc1	-0.922
COC(=O)[C@@]1(Cc2ccc(F)cc2)[C@H]2c3cc(C(=O)N(C)C)n(Cc4c(CO)[nH]cc(C)c4=O)c3C[C@H]2CN1C(=O)c1ccccc1	-0.00694
COCCOC(=O)N1C(=O)[C@@]2(c3cc(C#CC4(O)CCCCCC4)ccc31)[C@H](C(=O)N1CCN(c3ncccn3)CC1)[C@H]1C(=O)O[C@H](c3ccccc3)[C@H](c3ccccc3)N1[C@@H]2c1ccccc1OCCO	0.884
CC1CC/C=C\[C@H]2OC34C=CCN(C(C)(C)C)C(=O)[C@H]3N(C(CO)C(C)C)C(=O)[C@@H]4C2C(=O)O1 (stereo partly specified)	1.4
Cc1cccc([C@H]2C[C@H]3C(Br)=C[C@@H]2C(=O)[C@]32CO2)c1	0.185
C=C(C(=O)CC[C@@H](OC(=O)c1ccccc1-c1ccccc1C(=O)O)c1ccccc1OCCO)C(C)C	-0.695

* * *

# Method summary: small-molecule binders of probe aInhba, primary screen, biochemical, small-molecule microarray, 635/667 nm fluorescence (AID 1148);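 further: score merges 667nm spot fluorescence with signal-to-noise for antibody binding to printed compounds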
# Conditions used: higher = more signal
Reported composite z-score by item:

Molecule	composite z-score
C=C(/C(=C/C[C@@H](OC(C)=O)c1ccc(CO)o1)c1cc(C(=O)OC)ccc1OC)C(C)C	0.148
COc1ccc([Si](C)(C)[C@H]2[C@H](CCO)O[C@@]3(C(=O)N(Cc4ccccc4)c4ccc(N5CCOC5=O)cc43)[C@@H]2C)cc1	0.0756
O=C1C2C=CC(C(O)c3cc(C(F)(F)F)cc(C(F)(F)F)c3)N(Nc3ccccc3F)C2C(=O)N1c1ccccc1 (configuration not stated)	0.385
C=CCC(OC(C)=O)[C@@H]1[C@@H](N(Cc2cc3ccccc3o2)C(=O)c2ccc(-c3ccccc3)cc2)c2cc(OCCCO)ccc2N1C(=O)Cc1ccc(OC)cc1 (some centres not stated)	-0.0736
CCCCCCCCCCC(O)C1C=CC2C(=O)N(C)C(=O)C2N1Nc1cc(OC)c(OC)c(OC)c1 (configuration not stated)	0.0086
COc1cc(NN2C(C(O)c3ccc(I)cc3)C=CC3C(=O)N(c4ccccc4)C(=O)C32)cc(OC)c1OC (configuration not stated)	0.233
COc1ccc(C(O)C2C=CC3C(=O)N(c4ccccc4)C(=O)C3N2Nc2ccc(C(C)C)cc2)c2ccccc12 (configuration not stated)	0.216
